assay: Whole blood pharmacokinetics, LC-MS/MS, noncompartmental analysis
Format: in vivo, patients
condition-info: human, whole blood, iv, 6.25 mg
metric-name: Vd (L)
Numbers only here, please. The scale is L.

### Prompt Fill in the blank: the reported Vd of CO[C@H]1C[C@@H]2CC[C@@H](C)[C@@](O)(O2)C(=O)C(=O)N2CCCC[C@H]2C(=O)O[C@H]([C@H](C)C[C@@H]2CC[C@@H](OP(C)(C)=O)[C@H](OC)C2)CC(=O)[C@H](C)/C=C(\C)[C@@H](O)[C@@H](OC)C(=O)[C@H](C)C[C@H](C)/C=C/C=C/C=C/1C is ____.
### Response 80.3

----------
assay: Whole blood pharmacokinetics, LC-MS/MS, noncompartmental analysis
Format: in vivo, patients
condition-info: human, whole blood, iv, 12.5 mg
metric-name: Cmax (ng/mL)
Report as a plain number; the unit ng/mL is understood.

### Prompt Quick check: Cmax of CO[C@H]1C[C@@H]2CC[C@@H](C)[C@@](O)(O2)C(=O)C(=O)N2CCCC[C@H]2C(=O)O[C@H]([C@H](C)C[C@@H]2CC[C@@H](OP(C)(C)=O)[C@H](OC)C2)CC(=O)[C@H](C)/C=C(\C)[C@@H](O)[C@@H](OC)C(=O)[C@H](C)C[C@H](C)/C=C/C=C/C=C/1C ?
### Response 394

----------
assay: Whole blood pharmacokinetics, LC-MS/MS, noncompartmental analysis
Format: in vivo, patients
condition-info: human, whole blood, iv, 100 mg
metric-name: Cmax

### Prompt Recorded Cmax of CO[C@H]1C[C@@H]2CC[C@@H](C)[C@@](O)(O2)C(=O)C(=O)N2CCCC[C@H]2C(=O)O[C@H]([C@H](C)C[C@@H]2CC[C@@H](OP(C)(C)=O)[C@H](OC)C2)CC(=O)[C@H](C)/C=C(\C)[C@@H](O)[C@@H](OC)C(=O)[C@H](C)C[C@H](C)/C=C/C=C/C=C/1C [deforolimus] , please.
### Response 1260 ng/mL

----------
assay: Whole blood pharmacokinetics, LC-MS/MS, noncompartmental analysis
Format: in vivo, patients
condition-info: human, whole blood, iv, 100 mg
metric-name: Vd

### Prompt Which value of Vd has been reported for CO[C@H]1C[C@@H]2CC[C@@H](C)[C@@](O)(O2)C(=O)C(=O)N2CCCC[C@H]2C(=O)O[C@H]([C@H](C)C[C@@H]2CC[C@@H](OP(C)(C)=O)[C@H](OC)C2)CC(=O)[C@H](C)/C=C(\C)[C@@H](O)[C@@H](OC)C(=O)[C@H](C)C[C@H](C)/C=C/C=C/C=C/1C in the records?
### Response 373 L

----------
assay: Whole blood pharmacokinetics, LC-MS/MS, noncompartmental analysis
Assay type: in vivo, patients
condition-info: human, whole blood, iv, 75 mg
metric-name: clearance (mL/min)
The answer is to be given in mL/min; state only the numeric part.

### Prompt For CO[C@H]1C[C@@H]2CC[C@@H](C)[C@@](O)(O2)C(=O)C(=O)N2CCCC[C@H]2C(=O)O[C@H]([C@H](C)C[C@@H]2CC[C@@H](OP(C)(C)=O)[C@H](OC)C2)CC(=O)[C@H](C)/C=C(\C)[C@@H](O)[C@@H](OC)C(=O)[C@H](C)C[C@H](C)/C=C/C=C/C=C/1C , what is its reported clearance?
### Response 107
